experiment: Volume of distribution at steady state in Wistar Han rat at 1 mg/kg, iv administered as 1 hr infusion or 3 mg/kg, po administered via gavage by LC-MS/MS analysis; assay type: ADME, organism-based; details: in vivo, read-out: Vdss
parameter: Vd (L/kg)
Kindly answer with a numeric value in L/kg, unit omitted.

Record CC(=O)Nc1c(F)cc(C(=O)N[C@H]2CC[C@H](O)CC2)cc1O[C@@H](C)c1ccccc1 , field Vd: 0.91

====

Below, each of the molecules is paired with its reported CHI value.
conditions: buffer, pH 7.4
In your answer, state the number alone without any accompanying words.

structureSmilesString | CHI
CC(=O)Nc1ccc(C(=O)NCCCN)cc1OCc1cccc(Cl)c1 | 2.1
CC(=O)Nc1ccc(C(=O)NCCCN)cc1OCc1ccc(C(C)C)cc1 | 3.1
CC(=O)Nc1ccc(C(=O)NCCCN)cc1OCc1ccc(C)cc1 | 2

Record CC(=O)Nc1ccc(C(=O)NCCCN)cc1OCc1ccncc1 , field CHI: 0.1

Record CCNC(=O)c1ccc(NC(C)=O)c(OCc2ccccc2)c1F , field CHI: 2.5

Record CC(=O)Nc1ccc(C(=O)NCCCN)cc1OCc1ccc(Cl)cc1 , field CHI: 2.2

====

Recorded below: pIC50, system Bromodomain-containing protein 4 (Homo sapiens, UniProt O60885, Y97A).
Scale for pIC50: -log10 of concentration given in mol/L; no unit attached.

Some molecules with known pIC50 results, for comparison:
structureSmilesString | pIC50
CC(=O)Nc1ccc(C(=O)NCCCN)cc1OCc1ccc(C(N)=O)cc1 | 5.00
CCNC(=O)c1cc(OCc2ccccc2)c(NC(C)=O)cc1F | 5.80
CC(=O)Nc1ccc(C(=O)NCCCO)cc1OCc1ccccc1 | 5.40
CCNC(=O)c1cc(F)c(NC(C)=O)c(OCc2ccccc2)c1 | 6.00
CC(=O)Nc1ccc(C(=O)NCCCN)cc1OCc1cccnc1 | 4.80

Okay, next one:
Query CC(=O)Nc1ccc(C(=O)NCCCN)cc1OCc1ccccc1 on Bromodomain-containing protein 4 (Homo sapiens, UniProt O60885, Y97A); pIC50 returned: 5.80

====

assay: physchem; conditions: phosphate buffered saline, pH 7.4
parameter: solubility kinetic (µg/mL)
Kindly answer with a numeric value in µg/mL, unit omitted.

Some compounds with known solubility kinetic results, for comparison:
compound | solubility kinetic, µg/mL
CC(=O)Nc1ccc(C(=O)NCCc2cnc[nH]2)cc1OCc1ccccc1 | 125
CCNC(=O)c1ccc(NC(C)=O)c(OCc2ccccc2)c1 | 143
CC(=O)Nc1ccc(C(=O)NCCCO)cc1OCc1ccccc1 | 109

Record CC(=O)Nc1ccc(C(=O)NCCCN)cc1OCC1CCOCC1 , field solubility kinetic: 144

Record CC(=O)Nc1ccc(C(=O)NCCCN)cc1OC(C)c1ccccc1 (racemic) , field solubility kinetic: 159

Record COc1ccc(COc2cc(C(=O)NCCCN)ccc2NC(C)=O)cc1 , field solubility kinetic: 114

Record CC(=O)Nc1ccc(C(=O)NCCO)cc1OCc1ccccc1 , field solubility kinetic: 162

Record CCNC(=O)c1cc(F)c(NC(C)=O)c(OCc2ccccc2)c1 , field solubility kinetic: 18

====

test: in vitro; conditions: PAMPA, pH 7.4
Below, each of the molecules is paired with its reported Papp value.

Some molecules with known Papp results, for comparison:
molecule | Papp
CC(=O)Nc1ccc(C(=O)NCCCN)cc1OCC1CCOCC1 | < 0.3 ×10⁻⁶ cm/s
CC(=O)Nc1ccc(C(=O)NCCCN)cc1OCc1cccnc1 | < 0.3 ×10⁻⁶ cm/s
CC(=O)Nc1ccc(C(=O)NCCCN)cc1OCc1ccccn1 | < 0.3 ×10⁻⁶ cm/s
CC(=O)Nc1ccc(C(=O)NCCCN)cc1OCc1ccccc1 | < 0.3 ×10⁻⁶ cm/s
CC(=O)Nc1ccc(C(=O)NCCCN)cc1OC(C)c1ccccc1 (racemic) | < 0.3 ×10⁻⁶ cm/s

Record COc1ccc(COc2cc(C(=O)NCCCN)ccc2NC(C)=O)cc1 , field Papp: < 0.3 ×10⁻⁶ cm/s

Record CC(=O)Nc1ccc(C(=O)NCCCN)cc1OCc1ccc(Cl)cc1 , field Papp: < 0.3 ×10⁻⁶ cm/s

Record CC(=O)Nc1c(F)cc(C(=O)N[C@H]2CC[C@H](O)CC2)cc1O[C@@H](C)c1ccccc1 , field Papp: 1.6 ×10⁻⁶ cm/s

Record CC(=O)Nc1ccc(C(=O)NC2CCOCC2)cc1O[C@H](C)c1ccccc1 , field Papp: 30 ×10⁻⁶ cm/s

Record CC(=O)Nc1ccc(C(=O)NCCCN)cc1OCc1ccc(C(N)=O)cc1 , field Papp: < 0.3 ×10⁻⁶ cm/s

Record CC(=O)Nc1ccc(C(=O)NCC2CCOCC2)cc1OCc1ccccc1 , field Papp: 19 ×10⁻⁶ cm/s
